tested on: U2OS; assay: maximum observed lethal fraction; higher = more cell death; conditions: 0.1 µM;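 note: FLICK assay: SYTOX Green fluorescence of dead cells tracked over time after drugging in 96-well plates, with total cell counts taken from Triton X-100 lysed wells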
Provide the reported maximum observed lethal fraction of each item.
One number for each entry.

Working through the 5 compounds below one at a time, give maximum observed lethal fraction for each.
1. Nc1ncnc2c1ncn2[C@@H]1O[C@H](CO)C[C@H]1O [Cordycepin]
2. CC1(C)CCC(CN2CCN(c3ccc(C(=O)NS(=O)(=O)c4ccc(NCC5CCOCC5)c([N+](=O)[O-])c4)c(Oc4cnc5[nH]ccc5c4)c3)CC2)=C(c2ccc(Cl)cc2)C1 [ABT-199]
3. CCN1CCN(Cc2ccc(Nc3ncc(F)c(-c4cc(F)c5nc(C)n(C(C)C)c5c4)n3)nc2)CC1 [Abemaciclib]
4. CO[C@H]1C[C@@H]2CC[C@@H](C)[C@@](O)(O2)C(=O)C(=O)N2CCCC[C@H]2C(=O)O[C@H]([C@H](C)C[C@@H]2CC[C@@H](O)[C@H](OC)C2)CC(=O)[C@H](C)/C=C(\C)[C@@H](O)[C@@H](OC)C(=O)[C@H](C)C[C@H](C)/C=C/C=C/C=C/1C [Rapamycin]
5. CN(C)C/C=C/C(=O)Nc1ccc(C(=O)N2CCC[C@@H](Nc3ncc(Cl)c(-c4c[nH]c5ccccc45)n3)C2)cc1 [THZ531]

## Output
0.0524
0.0502
0.0675
0.0606
0.0575

Entry CN(C)CC[C@H](CSc1ccccc1)Nc1ccc(S(=O)(=O)NC(=O)c2ccc(N3CCN(Cc4ccccc4-c4ccc(Cl)cc4)CC3)cc2)cc1[N+](=O)[O-] [ABT-737] ; maximum observed lethal fraction = 0.0649

The values you see were collected from the supplement of paper PMC12406974.
